Please provide measured IC50 for the entries that follow.
Biological target: human cathepsin L (Homo sapiens, UniProt P07711)
Construct: purchased R&D Systems
Experiment: cathepsin L assay
Format: biochemical
Conditions: 10 pM human cathepsin L, Z-FR-AMC 2 μM, class symbols

Problem: Checklist item: IC50 tested on human cathepsin L (Homo sapiens, UniProt P07711), entry COc1cccc2[nH]c(C(=O)N3C[C@@H]4CCC[C@@H]4[C@H]3C(=O)N[C@@H](C[C@@H]3CCNC3=O)C(=O)CO)nc12 , value?
Solution: ≥ 10 µM

Problem: Checklist item: IC50 tested on human cathepsin L (Homo sapiens, UniProt P07711), entry COc1cccc2[nH]c(C(=O)N3CCC4(CC4)C[C@H]3C(=O)N[C@@H](C[C@@H]3CCCNC3=O)C(=O)CO)cc12 , value?
Solution: ≥ 10 µM

Problem: Checklist item: IC50 tested on human cathepsin L (Homo sapiens, UniProt P07711), entry COc1cccc2[nH]c(C(=O)N3C[C@@H]4CCC[C@@H]4[C@H]3C(=O)N[C@@H](C[C@@H]3CCNC3=O)C(=O)c3cnc[nH]3)cc12 , value?
Solution: ≥ 10 µM

Problem: Checklist item: IC50 tested on human cathepsin L (Homo sapiens, UniProt P07711), entry O=C(NCc1ccccc1)C(=O)C(C[C@@H]1CCNC1=O)NC(=O)[C@@H]1[C@H]2CC[C@H](C2)N1C(=O)c1cc2ccccc2[nH]1 (stereo partly drawn) , value?
Solution: 0.1 to 1 µM

Problem: Checklist item: IC50 tested on human cathepsin L (Homo sapiens, UniProt P07711), entry CC(C)[C@@H]1C[C@@H](C(=O)NC(C[C@@H]2CCNC2=O)C(=O)C(=O)NCc2ccccc2)N(C(=O)c2cc3ccccc3[nH]2)C1 (stereo partly drawn) , value?
Solution: 0.1 to 1 µM

Problem: Checklist item: IC50 tested on human cathepsin L (Homo sapiens, UniProt P07711), entry O=C(c1ccccc1)c1c[nH]c(C(=O)N2C[C@@H]3CCC[C@@H]3[C@H]2C(=O)N[C@@H](C[C@@H]2CCNC2=O)C(=O)CO)c1 , value?
Solution: ≥ 10 µM

Problem: Checklist item: IC50 tested on human cathepsin L (Homo sapiens, UniProt P07711), entry N#C[C@H](C[C@@H]1CCNC1=O)NC(=O)[C@@H]1[C@H]2CCC[C@H]2CN1C(=O)c1cc2c(Cl)ccc(Cl)c2[nH]1 , value?
Solution: ≥ 10 µM

Problem: Checklist item: IC50 tested on human cathepsin L (Homo sapiens, UniProt P07711), entry O=C1NCC[C@H]1C[C@H](NC(=O)[C@@H]1[C@H]2CCC[C@H]2CN1C(=O)c1cc2c(OC3CC3)cc(Cl)cc2[nH]1)C(=O)CO , value?
Solution: ≥ 10 µM

Problem: Checklist item: IC50 tested on human cathepsin L (Homo sapiens, UniProt P07711), entry COc1cccc2[nH]c(C(=O)N3C[C@]4(C[C@H]3C(=O)NC(C=O)C[C@@H]3CCCNC3=O)CC4(F)F)cc12 (stereo partly drawn) , value?
Solution: 0.1 to 1 µM

Problem: Checklist item: IC50 tested on human cathepsin L (Homo sapiens, UniProt P07711), entry COc1cccc2[nH]c(C(=O)N3C[C@@H]4CCC[C@@H]4[C@H]3C(=O)N[C@@H](C[C@@H]3CCNC3=O)C(=O)c3ncc[nH]3)cc12 , value?
Solution: ≥ 10 µM

Problem: Checklist item: IC50 tested on human cathepsin L (Homo sapiens, UniProt P07711), entry O=C1NCC[C@H]1C[C@H](NC(=O)[C@@H]1[C@H]2CCC[C@H]2CN1C(=O)c1cc2ncccc2[nH]1)C(=O)CO , value?
Solution: ≥ 10 µM

Problem: Checklist item: IC50 tested on human cathepsin L (Homo sapiens, UniProt P07711), entry COc1ccc2[nH]c(C(=O)N3CCC4(CC4)C[C@H]3C(=O)N[C@@H](C[C@@H]3CCNC3=O)C(=O)C(=O)NC3CC3)cc2c1 , value?
Solution: ≥ 10 µM

---

Please provide measured EC50 for the entries that follow.
System: human beta-coronavirus OC43
Assay: microbe, parasite or virus in culture
Type: cell-based
Conditions: Betacoronavirus 1, OC43, HeLa, 144 h, OC43 in HeLa cells, 6 days at 33° C., class symbols; read-out: EC50

Problem: May I ask what EC50 has been recorded for COc1cccc2[nH]c(C(=O)N3C[C@@H]4CCC[C@@H]4[C@H]3C(=O)N[C@H](C=O)C[C@@H]3CCNC3=O)cc12 [Compound 14A] ?
Solution: 1000 to 10000 nM

Problem: May I ask what EC50 has been recorded for COc1cccc2[nH]c(C(=O)N3C[C@H]4[C@@H]([C@H]3C(=O)N[C@@H](C[C@@H]3CCNC3=O)C(=O)C(N)=O)C4(C)C)cc12 ?
Solution: 1000 to 10000 nM

Problem: May I ask what EC50 has been recorded for Cc1ccc2[nH]c(C(=O)N3CCC4(CC4)C[C@H]3C(=O)N[C@@H](C[C@@H]3CCNC3=O)C(=O)C(=O)NC3CC3)cc2c1 ?
Solution: 100 to 1000 nM

Problem: May I ask what EC50 has been recorded for O=C1NCC[C@H]1C[C@H](NC(=O)[C@@H]1[C@H]2CCC[C@H]2CN1C(=O)c1cc2c(C(F)(F)F)cccc2[nH]1)C(=O)CO ?
Solution: 100 to 1000 nM

Problem: May I ask what EC50 has been recorded for O=C1NCC[C@H]1C[C@H](NC(=O)[C@@H]1[C@H]2[C@H]3CC[C@H](C3)[C@H]2CN1C(=O)c1cc2c(Cl)cc(Cl)cc2[nH]1)C(=O)CO ?
Solution: 100 to 1000 nM

Problem: May I ask what EC50 has been recorded for O=C[C@H](C[C@@H]1CCCNC1=O)NC(=O)[C@@H]1[C@H]2CCC[C@H]2CN1C(=O)c1cc2ccccc2[nH]1 ?
Solution: 100 to 1000 nM

Problem: May I ask what EC50 has been recorded for COc1cccc2[nH]c(C(=O)N3CC4(CC4)C[C@H]3C(=O)N[C@@H](C[C@@H]3CCNC3=O)C(=O)CO)cc12 ?
Solution: 100 to 1000 nM

Problem: May I ask what EC50 has been recorded for COc1cccc2[nH]c(C(=O)N3CCc4ccccc4[C@H]3C(=O)N[C@@H](C[C@@H]3CCNC3=O)C(=O)CO)cc12 ?
Solution: 1000 to 10000 nM

Problem: May I ask what EC50 has been recorded for COc1cccc2[nH]c(C(=O)N3C[C@@H]4CCC[C@@H]4[C@H]3C(=O)N[C@@H](C[C@@H]3CCNC3=O)C(=O)CO)nc12 ?
Solution: 1000 to 10000 nM

Problem: May I ask what EC50 has been recorded for O=C1NCC[C@H]1C[C@H](NC(=O)[C@@H]1[C@H]2CCC[C@H]2CN1C(=O)c1cc2c(Cl)cccc2[nH]1)C(=O)CO ?
Solution: < 100 nM

Problem: May I ask what EC50 has been recorded for COc1cccc2[nH]c(C(=O)N3C[C@@H]4CCC[C@@H]4[C@H]3C(=O)N[C@@H](C[C@@H]3CCNC3=O)C(=O)COP(=O)(O)O)cc12 ?
Solution: 100 to 1000 nM

Problem: May I ask what EC50 has been recorded for N#C[C@H](C[C@@H]1CCNC1=O)NC(=O)[C@@H]1[C@H]2CCC[C@H]2CN1C(=O)c1cc2c(Cl)ccc(Cl)c2[nH]1 ?
Solution: 100 to 1000 nM

Problem: May I ask what EC50 has been recorded for COc1cccc2oc(C(=O)N3C[C@@H]4CCC[C@@H]4[C@H]3C(=O)N[C@@H](C[C@@H]3CCNC3=O)C(=O)CO)cc12 ?
Solution: 1000 to 10000 nM

Problem: May I ask what EC50 has been recorded for COc1cccc2[nH]c(C(=O)N3C[C@@H]4CCC[C@@H]4[C@H]3C(=O)NC(C[C@@H]3CCNC3=O)C(=O)C(=O)NC3CC3)cc12 (stereo partly drawn) ?
Solution: 1000 to 10000 nM

Problem: May I ask what EC50 has been recorded for COc1cccc2[nH]c(C(=O)N3C[C@H](c4ccccc4)C[C@H]3C(=O)N[C@@H](C[C@@H]3CCNC3=O)C(=O)CO)cc12 ?
Solution: 100 to 1000 nM

Problem: May I ask what EC50 has been recorded for O=C(NCc1ccccc1)C(=O)[C@H](C[C@@H]1CCNC1=O)NC(=O)[C@@H]1C[C@@]2(CN1C(=O)c1cc3ccccc3[nH]1)CC2(F)F ?
Solution: 100 to 1000 nM

Problem: May I ask what EC50 has been recorded for O=C1NCCC[C@H]1C[C@H](NC(=O)[C@@H]1[C@H]2CCC[C@H]2CN1C(=O)c1cc2ccccc2[nH]1)C(O)S(=O)(=O)O (stereo partly drawn) ?
Solution: 100 to 1000 nM

Problem: May I ask what EC50 has been recorded for O=C1NCC[C@H]1C[C@H](NC(=O)[C@@H]1[C@H]2CCC[C@H]2CN1C(=O)c1cc2c(Cl)cc(Cl)cc2[nH]1)C(=O)CO ?
Solution: < 100 nM

Problem: May I ask what EC50 has been recorded for O=C1NCC[C@H]1C[C@H](NC(=O)[C@@H]1[C@H]2CCC[C@H]2CN1C(=O)c1cc2c(Cl)ccc(Oc3ccccc3)c2[nH]1)C(=O)CO ?
Solution: < 100 nM

Problem: May I ask what EC50 has been recorded for COc1cccc2[nH]c(C(=O)N3C[C@@H]4CCC[C@@H]4[C@H]3C(=O)NC(C[C@@H]3CCNC3=O)C(=O)C(=O)NCc3ccccc3)nc12 (stereo partly drawn) ?
Solution: 10000 to 100000 nM

Problem: May I ask what EC50 has been recorded for O=C(NCc1ccccc1)C(=O)C(C[C@@H]1CCNC1=O)NC(=O)[C@@H]1C[C@@H](OCc2ccccc2)CN1C(=O)c1cc2ccccc2[nH]1 (stereo partly drawn) ?
Solution: 1000 to 10000 nM

Problem: May I ask what EC50 has been recorded for COc1cccc2[nH]c(C(=O)N3C[C@H](C(F)(F)F)C[C@H]3C(=O)N[C@@H](C[C@@H]3CCCNC3=O)C(=O)CO)cc12 ?
Solution: 100 to 1000 nM

Problem: May I ask what EC50 has been recorded for O=C(NC1CC1)C(=O)[C@H](C[C@@H]1CCNC1=O)NC(=O)[C@@H]1CC2(CCN1C(=O)c1cc3ccccc3s1)CC2 ?
Solution: 100 to 1000 nM

Problem: May I ask what EC50 has been recorded for COc1cccc2[nH]c(C(=O)N3C[C@@H]4CCC[C@@H]4[C@H]3C(=O)N[C@@H](CC3CC(C)(C)NC3=O)C(=O)C(=O)NC3CC3)cc12 (single isomer, unassigned) ?
Solution: 100 to 1000 nM
